- Test system: Streptococcus mutans (JCM5175)
- Protocol: Growth inhibition activity (MIC, agar) against anaerobic bacteria
- Format: cell-based
- Experimental Setup: Streptococcus mutans, 72 h; strain JCM5175; Trypticase Soy Broth agar, 37 degrees C. for 3 days; read-out: MIC (Minimum Inhibitory Concentration)
Assay Metric: MIC (µg/mL)

So the reported MIC for CC1CCC(C(C)C)C(OCC(C)(O)CO)C1 (stereo not shown) [CA1, 2-methyl-3-(menthoxy)propane-1,2-diol] , on Streptococcus mutans (JCM5175), turned out to be 800

# CC1CCC(C(C)C)C(OCCOCCO)C1 (stereo not shown) [CA55, 2-(2-menthoxyethoxy)ethanol] with Streptococcus mutans (JCM5175): MIC is 800

Entry CC1CCC(C(C)C)C(OCCO)C1 (stereo not shown) [CA5, 2-(menthoxy)ethanol] , Streptococcus mutans (JCM5175) data, MIC value: 800

[a] CC1CCC(C(C)C)C(OC(=O)C=O)C1 (stereo not shown) [CA MGH, menthyl glyoxylate]
[b] CC1CCC(C(C)C)C(OCC(O)CO)C1 (stereo not shown) [CA10, 3-menthoxypropane-1,2-diol, reference compound]
[c] CC(O)CC(=O)OC1CC(C)CCC1C(C)C [(3S)-CA20, menthyl 3-hydroxybutanoate]
[d] CC1CCC(C(C)C)C(OCCCO)C1 (stereo not shown) [CA15, 3-menthoxypropan-1-ol]
Ask: List from greatest to least MIC. List the labels, following the order given in the request.
Reply: b, d, c, a
(b: 800 µg/mL, d: 400 µg/mL, c: 200 µg/mL, a: 100 µg/mL)
